Data origin, for the record: the supplement of paper PMC10567573

This section presents variants with their documented protein stability index values.
B1: LRRC45 (parent)
chain: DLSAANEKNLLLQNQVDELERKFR

- Variants of: B1
- Assay name: protein stability index of a GFP-peptide fusion (GPS, HEK-293T) (PSI 1-6); higher = more stable;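 note: lentivirally expressed fusions sorted by FACS into six bins by GFP to DsRed ratio, PSI derived from sequencing read proportions per bin multiplied by bin number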
- Experimental setup: c terminus: a fixed tail appended
Experimental endpoint: protein stability index

> print(dat)
    mutation.notation  assay.result
 1               Q15L          3.01
 2                L2T          4.92
 3               K22T          3.71
 4                S3N          4.07
 5                E7C          3.78
 6                D1R          4.41
 7               L10P          4.75
 8               Q13N          3.68
 9                N9D          4.91
10                A4F          3.61
11               Q15H          4.04
12                D1Q          4.21
13               R24I          3.85
14                L2Y          4.85
15               E18K          3.94
16                D1Y          4.19
17               K22I          3.01
18               D17H          2.99
19               R21H          4.22
20               N14L          3.43
21               L10Y          3.71
22               L10N          4.17
23                E7A           3.5
24                A4P          4.11
25               D17Q          3.66
26                S3A          4.44
27                K8I          3.43
28               F23M          4.63
29                K8S          4.36
30                L2G          4.78
31                A5G          4.22
32               V16A          4.48
33               L12S          4.03
34               L19R          3.68
35               E18D          5.06
36               L11F          4.13
37               L11E          4.84
38               V16H          4.08
39                N6I          3.27
40               L19K          3.92
41               E20A          3.96
42               L11K          4.57
43                S3V          3.89
44               Q15G          4.36
45                A4C          3.85
46               F23R          3.86
